tested_system: Jak2 (UniProt O60674)
Sequence (O60674 whole entry, looked up): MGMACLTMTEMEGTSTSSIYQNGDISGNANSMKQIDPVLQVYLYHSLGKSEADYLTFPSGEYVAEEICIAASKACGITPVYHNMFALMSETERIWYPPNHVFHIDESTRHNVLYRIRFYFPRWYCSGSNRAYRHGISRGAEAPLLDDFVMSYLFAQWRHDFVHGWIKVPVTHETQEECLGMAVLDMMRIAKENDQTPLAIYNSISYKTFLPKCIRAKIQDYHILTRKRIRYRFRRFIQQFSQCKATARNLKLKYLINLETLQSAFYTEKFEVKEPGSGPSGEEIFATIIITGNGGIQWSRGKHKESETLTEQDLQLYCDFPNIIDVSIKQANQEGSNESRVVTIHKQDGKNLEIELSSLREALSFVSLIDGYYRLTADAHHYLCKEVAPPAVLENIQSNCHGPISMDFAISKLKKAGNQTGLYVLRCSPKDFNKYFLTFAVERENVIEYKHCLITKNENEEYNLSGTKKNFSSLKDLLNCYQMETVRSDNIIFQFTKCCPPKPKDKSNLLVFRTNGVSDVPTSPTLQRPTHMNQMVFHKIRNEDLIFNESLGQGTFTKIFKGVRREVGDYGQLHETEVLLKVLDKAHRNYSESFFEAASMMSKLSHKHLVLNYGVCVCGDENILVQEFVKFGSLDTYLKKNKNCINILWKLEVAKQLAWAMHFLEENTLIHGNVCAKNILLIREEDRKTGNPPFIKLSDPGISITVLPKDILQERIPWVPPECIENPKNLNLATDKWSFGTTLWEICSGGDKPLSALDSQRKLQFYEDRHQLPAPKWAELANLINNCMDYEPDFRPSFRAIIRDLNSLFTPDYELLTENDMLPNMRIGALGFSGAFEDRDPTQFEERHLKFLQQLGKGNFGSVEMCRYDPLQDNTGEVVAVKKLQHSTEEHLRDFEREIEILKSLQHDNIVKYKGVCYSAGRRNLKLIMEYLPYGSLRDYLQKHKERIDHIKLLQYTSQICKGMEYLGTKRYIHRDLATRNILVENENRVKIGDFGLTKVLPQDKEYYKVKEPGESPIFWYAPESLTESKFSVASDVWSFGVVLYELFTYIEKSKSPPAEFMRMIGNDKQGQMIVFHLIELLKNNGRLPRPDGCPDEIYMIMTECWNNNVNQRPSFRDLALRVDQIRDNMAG
assay_text: phosphorylation enrichment, bacterial display (enrichment ratio); higher = better substrate or ligand; peptides without Tyr show the background
Could you label it YES if measured phosphorylation enrichment is 0.8 or higher, and NO otherwise?

Here are 3 sequences together with their reported answers.
> print(dat)
                      sequence.chain  class.assignment
1    PVDVAYRHGYF [PLEC_Y2967_R2969H]               YES
2  ETAENYLGFTA [HSPA9_Y181_H184Y_YF]               YES
3           VRQQVYKKVEE [HADHA_Y283]                NO

Kindly determine if phosphorylation enrichment recorded for YQLPYYNTVPS [BMPR1A_Y458_M460T] is above or exactly 0.8.
YES

Kindly determine if phosphorylation enrichment recorded for SESSYYKSLNL [NGEF_Y289_A286S] is above or exactly 0.8.
YES

Kindly determine if phosphorylation enrichment recorded for RHFTTYDTNGR [CLCA1_Y665_Y661H] is above or exactly 0.8.
YES

Kindly determine if phosphorylation enrichment recorded for ADYPDYKYRPR [SOX11_Y116] is above or exactly 0.8.
NO

Kindly determine if phosphorylation enrichment recorded for GRVYVYHLSEQ [ITGAE_Y551_R552H] is above or exactly 0.8.
YES

Kindly determine if phosphorylation enrichment recorded for KPLMPCMRFSR [SMARCE1_Y73_Y73C_YF] is above or exactly 0.8.
NO

Kindly determine if phosphorylation enrichment recorded for HELYVYKCDEN [DOCK3_Y548] is above or exactly 0.8.
YES

Kindly determine if phosphorylation enrichment recorded for CTTSHYNYMCN [TP53_Y234_I232S] is above or exactly 0.8.
NO

Kindly determine if phosphorylation enrichment recorded for HLGNQYVNVMN [SLC3A1_Y461_R456H] is above or exactly 0.8.
NO

Kindly determine if phosphorylation enrichment recorded for IKRIDYEFVEM [ADA_Y84_A83D] is above or exactly 0.8.
YES

###

tested_system: c-Src SH2;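 note: peptide library displayed on the E. coli surface as eCPX fusions, selected cells deep-sequenced, score is each peptide's frequency after selection divided by its frequency in the input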
assay_text: SH2 binding enrichment of the phosphorylated peptide, bacterial display (enrichment ratio); higher = better substrate or ligand; peptides without Tyr show the background
measured_attribute: SH2 binding enrichment
One number for each entry.

Before answering, review these 6 worked examples.
> print(dat)
                      sequence.chain  result.number
1      TLNHQYDFTFD [CSNK1A1_Y292_YF]            8.5
2           HYGNNYRDVLQ [MACC1_Y803]          0.568
3       SHSMRYFYTAV [HLA-C_Y31_D33Y]              2
4      AALVQYYMEHH [PTPN11_Y80_E76A]          0.742
5  NRLTDYFELLL [BBS10_Y536_P539L_YF]          0.834
6           GLTSTYAGIRK [ROBO1_Y932]           1.28

I'm hoping you can list SH2 binding enrichment for every sequence here, please.
1. QAEELYFGKMG [YES1_Y159_W158L]
2. LISVSYDDWDY [GRIN2A_Y281]
3. IKRIDYEFVEM [ADA_Y84_A83D]
4. LGSNGCKKLLK [SEPSECS_Y334_Y334C]
5. IQKKYYRAILE [CHD7_Y1218]
6. VATSWYRSPEL [CDKL5_Y177_R175S]

1: 0.483; 2: 1.9; 3: 0.5; 4: 0.849; 5: 0.637; 6: 0.549

I'm hoping you can list SH2 binding enrichment for every sequence here, please.
1. KRGVSYILKLA [SERPINB1_Y84_A82V]
2. VSKGGYFSVNL [C3orf33_Y164]

[0.763, 2.06]

###

System: c-Abl (mouse)
assay_text: phosphorylation enrichment, bacterial display (enrichment ratio); higher = better substrate or ligand; peptides without Tyr show the background
measured_attribute: phosphorylation enrichment
Numbers only.

> print(dat)
                   sequence.chain  tested.system          measured.attribute  result.number
1       DERQPYAHMNG [IGF1R_Y1346]  c-Abl (mouse)  phosphorylation enrichment          0.455
2  CGTPDYIDPEI [PRKCG_Y521_A523D]  c-Abl (mouse)  phosphorylation enrichment          0.813
3      TDEFEYDELIV [TGM1_Y136_YF]  c-Abl (mouse)  phosphorylation enrichment           0.91
4    ALAHKYPGGGG [HBB_Y146_H147P]  c-Abl (mouse)  phosphorylation enrichment          0.436

I'm hoping you can list phosphorylation enrichment for every sequence here, please.
1. VGSEDYGRDLT [SPTAN1_Y1792]
2. ALAAPYVLFPS [CEFIP_Y1332_G1337S_YF]
3. ELSDGYWVVSN [TPP1_Y459_A454E]

[1.04, 0.682, 0.778]

I'm hoping you can list phosphorylation enrichment for every sequence here, please.
1. CTTIRYNFMCN [TP53_Y234_H233R_YF]
2. ASPALYRLDLD [TRIL_Y352]
3. LTDRGYSFVTT [ACTA1_Y200_E197D]
4. ATDLAYYLVRK [ASL_Y375]
5. LISVSYDDWDY [GRIN2A_Y281]
6. SWKRRYFLLRA [APBB1IP_Y331]
7. APNEFYDGDHD [HDAC3_Y414]

[0.618, 0.763, 1.17, 1.04, 1.01, 0.637, 1.04]

I'm hoping you can list phosphorylation enrichment for every sequence here, please.
1. KQLYAYKMLMA [TMC2_Y209]
2. PADRAYSWFQH [NDST1_Y711_YF]
3. GLTSTYAGIRK [ROBO1_Y932]
4. RSRSPYSPVLR [CDK13_Y399]
5. MGSYNYLGFAR [SPTLC2_Y178]

[0.57, 0.645, 0.724, 0.763, 0.956]

I'm hoping you can list phosphorylation enrichment for every sequence here, please.
1. RRIEKYVDQGK [IRAK3_Y61_H57R]
2. IINENYDYLKV [NUP98_Y1664_G1669V]

1: 0.56; 2: 0.664

I'm hoping you can list phosphorylation enrichment for every sequence here, please.
1. ECKASCPGKIT [PRSS3_Y232_Y232C]
2. SADIAYNFRHG [PAH_Y166_F161S_YF]
3. GCCSWYRGWAP [TIMP3_Y195_Y191C]

1: 0.577; 2: 0.789; 3: 0.59

I'm hoping you can list phosphorylation enrichment for every sequence here, please.
1. TNEYEYDELIV [TGM1_Y136_D132N]
2. PYRQWYESHYA [RPS8_Y113]
3. SGADSYEMEED [EGFR_Y316_C311S]

0.962
1.19
0.749

I'm hoping you can list phosphorylation enrichment for every sequence here, please.
1. QDTSRYTVCNL [BIRC3_Y245_S248C]
2. VFLGAYDCFLP [SLC22A5_Y486_R488C_YF]

[0.854, 0.953]

###

I'd appreciate it if you could supply phosphorylation enrichment values for the items below.
tested_system: Hck (UniProt P08631)
Sequence (P08631 whole entry, looked up): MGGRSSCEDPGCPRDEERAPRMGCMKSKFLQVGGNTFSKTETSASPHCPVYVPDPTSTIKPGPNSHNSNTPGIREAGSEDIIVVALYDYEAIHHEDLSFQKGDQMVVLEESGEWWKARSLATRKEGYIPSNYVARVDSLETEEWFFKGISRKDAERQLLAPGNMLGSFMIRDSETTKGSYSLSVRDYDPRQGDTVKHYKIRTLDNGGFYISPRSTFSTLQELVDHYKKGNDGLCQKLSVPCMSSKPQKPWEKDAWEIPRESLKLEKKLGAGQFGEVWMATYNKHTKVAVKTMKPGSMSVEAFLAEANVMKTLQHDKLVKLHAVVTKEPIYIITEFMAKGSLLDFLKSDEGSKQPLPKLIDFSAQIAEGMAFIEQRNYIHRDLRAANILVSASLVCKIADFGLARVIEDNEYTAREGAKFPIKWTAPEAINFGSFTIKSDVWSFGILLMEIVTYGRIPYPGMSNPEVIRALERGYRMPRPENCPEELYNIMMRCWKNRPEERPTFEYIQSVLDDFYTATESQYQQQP
assay_text: phosphorylation enrichment, bacterial display (enrichment ratio); higher = better substrate or ligand; peptides without Tyr show the background
Give bare numbers.

> print(dat)
                      sequence.chain          measured.attribute  result.number
 1          QFPDVYAREEV [CRX_Y67_YF]  phosphorylation enrichment          0.645
 2          FSGKAYADEER [CRIM1_Y826]  phosphorylation enrichment          0.499
 3   PVDVAYRHGYF [PLEC_Y2967_R2969H]  phosphorylation enrichment          0.695
 4         EYKKKYSDADI [CKAP5_Y1860]  phosphorylation enrichment          0.367
 5   PLQKTYNHNVL [SLC4A1_Y553_Y555H]  phosphorylation enrichment          0.291
 6    LIEQAYDNLHE [PRPF8_Y871_P874L]  phosphorylation enrichment           1.15
 7  TMKSHYMELFD [BBS2_Y644_R643H_YF]  phosphorylation enrichment          0.601
 8          FGVTLYPNSRE [MEP1A_Y472]  phosphorylation enrichment          0.599
 9      DRFDNYIEKVR [DES_Y122_A120D]  phosphorylation enrichment          0.413
10             MSLRSYGSREG [APC_Y96]  phosphorylation enrichment          0.387

I'm hoping you can list phosphorylation enrichment for every sequence here, please.
1. ALAAPYVLFPS [CEFIP_Y1332_G1337S_YF]
2. MCDSHYLESRS [CLK1_Y56]
3. NLNGKYNKPRA [ANGPTL3_Y417]
4. PRSRSYSSTSI [REPS2_Y462]

1. 0.647
2. 0.35
3. 0.362
4. 0.468
